Entries annotated with measured apparent KD of MS2 coat protein
- Tested on: MS2 coat protein
- assay.notes: apparent KD of MS2 coat protein; designed switch direction (-1 OFF switch, 1 ON switch): -1; higher = weaker reporter binding
- assay.conditions: input ligand: FMN 200 uM
Answer format reminder: number followed by unit.

Use the examples below as a reference point.
monomer.sequence: ACGCAUUGCCUUUGGUAGUGCGUAACAUGAGGAUCACCCAUGUAGGAUAUGGUAGGCUUUGCUUACCAGAAGGACAUUAUAAAG [Mat - Exclusion NG 3 - Mod of JL - D10] (Eterna round: R96, puzzle: Exclusion NG 3)
apparent KD of MS2 coat protein: 51.6 nM
//
monomer.sequence: GUUAUGUAAGGAUAUAUGAGUCACGGAAAUAAACCGUGAAGAUAGAAGGUACAUGAGGAUCACCCAUGUAAGGC [Mod of Anonveat 9 - Jieux - Exclusion 4] (Eterna round: R97, puzzle: Exclusion 4)
apparent KD of MS2 coat protein: 16.7 nM
//
monomer.sequence: CGGUGCUCGUGGAAACAUGAGGAUCACCCAUGUUGAGUUAGCGAGGAUAUCGGUAACACAUAUCACGAGAAGGCGCGAACCAGA [Ex NG3 #31] (Eterna round: R96, puzzle: Exclusion NG 3)
apparent KD of MS2 coat protein: 23.3 nM

Query sequence follows.
Briefly, apparent KD of MS2 coat protein measured for AUUAAUGUCAAAGGAUAUCAGCACGAUUAGUGCUGAGAAGGUUGAACAUGAGGAUCACCCAUGUAGAUCAUUAAUAAUUUAAUU [ENG1/10-B2] (Eterna round: R96, puzzle: Exclusion NG 1) : 26.4 nM
